meta.source: patent US20250326732A1

- Experimental system: POLRMT (Homo sapiens (Human), UniProt O00411)
- Sequence (O00411 42-1230): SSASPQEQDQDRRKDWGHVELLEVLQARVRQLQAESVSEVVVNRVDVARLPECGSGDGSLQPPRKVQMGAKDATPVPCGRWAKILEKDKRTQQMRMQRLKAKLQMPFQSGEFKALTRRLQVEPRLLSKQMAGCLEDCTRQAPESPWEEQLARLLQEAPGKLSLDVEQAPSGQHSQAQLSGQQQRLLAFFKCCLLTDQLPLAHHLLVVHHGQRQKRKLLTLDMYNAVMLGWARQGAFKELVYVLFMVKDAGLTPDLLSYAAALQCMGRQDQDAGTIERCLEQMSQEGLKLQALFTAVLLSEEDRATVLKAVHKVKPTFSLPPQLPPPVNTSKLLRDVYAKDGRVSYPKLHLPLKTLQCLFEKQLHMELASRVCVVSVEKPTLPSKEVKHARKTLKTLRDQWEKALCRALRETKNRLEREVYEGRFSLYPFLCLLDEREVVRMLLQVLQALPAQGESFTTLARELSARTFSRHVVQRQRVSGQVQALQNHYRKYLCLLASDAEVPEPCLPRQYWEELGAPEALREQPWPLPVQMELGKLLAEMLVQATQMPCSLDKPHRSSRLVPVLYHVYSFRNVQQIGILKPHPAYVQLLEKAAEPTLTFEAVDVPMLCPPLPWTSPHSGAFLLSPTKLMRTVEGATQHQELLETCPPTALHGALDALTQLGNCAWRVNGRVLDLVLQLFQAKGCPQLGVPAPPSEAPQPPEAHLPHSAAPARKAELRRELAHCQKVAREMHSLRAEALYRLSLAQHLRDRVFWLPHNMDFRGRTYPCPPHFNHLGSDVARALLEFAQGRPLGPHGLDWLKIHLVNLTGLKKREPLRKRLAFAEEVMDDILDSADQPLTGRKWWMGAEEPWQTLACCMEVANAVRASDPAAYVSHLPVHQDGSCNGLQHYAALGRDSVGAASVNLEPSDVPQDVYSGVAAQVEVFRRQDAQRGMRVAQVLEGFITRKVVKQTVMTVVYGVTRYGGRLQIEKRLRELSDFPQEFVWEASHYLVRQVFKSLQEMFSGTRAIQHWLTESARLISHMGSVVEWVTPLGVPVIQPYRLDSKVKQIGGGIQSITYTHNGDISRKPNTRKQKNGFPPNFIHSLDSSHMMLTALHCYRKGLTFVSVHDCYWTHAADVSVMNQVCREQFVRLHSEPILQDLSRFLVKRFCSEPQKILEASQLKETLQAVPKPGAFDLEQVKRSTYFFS
Each record here notes measured pIC50.
// scale note: pIC50 = -log10(conc_M); give the bare number

{"Molecule": "Cc1ccccc1-c1cc(=O)oc2cc(N(C)CC3(C(=O)O)CC3)ccc12 [Example 217]", "Experimental system": "POLRMT (Homo sapiens (Human), UniProt O00411)", "pIC50": 7.05}
{"Molecule": "Cc1ccccc1-c1cc(=O)oc2cc(N(C)CC(=O)NC3CCOCC3)ccc12 [Example 139]", "Experimental system": "POLRMT (Homo sapiens (Human), UniProt O00411)", "pIC50": 7.00}
{"Molecule": "Cc1ccccc1-c1cc(=O)oc2cc(CN(C)C(=O)N3CCC[C@H](C(=O)O)C3)ccc12 [Example 146]", "Experimental system": "POLRMT (Homo sapiens (Human), UniProt O00411)", "pIC50": 6.52}
{"Molecule": "C[C@H](C(=O)N(C)C)N(C)c1ccc2c(-c3ccc(F)cc3Cl)cc(=O)oc2c1 [Example 46]", "Experimental system": "POLRMT (Homo sapiens (Human), UniProt O00411)", "pIC50": 7.30}

Ask: Note pIC50 for the molecule shown: COCc1ccc2c(-c3ccc(F)cc3Cl)cc(=O)oc2c1 [Example 16]
Result: 6.00

Ask: Note pIC50 for the molecule shown: CCOC(=O)[C@H]1CCCN(C(=O)N(C)Cc2ccc3c(-c4ccc(F)cc4Cl)cc(=O)oc3c2)C1 [Example 07]
Result: 5.15

Ask: Note pIC50 for the molecule shown: Cc1ccccc1-c1cc(=O)oc2cc(CC(C)C(=O)O)ccc12 (centres unmarked) [Example 52]
Result: 6.70

Ask: Note pIC50 for the molecule shown: Cc1ccccc1-c1cc(=O)oc2cc([C@H]3C[C@H]3C(N)=O)ccc12 (relative stereo) [Example 235]
Result: 5.70

Ask: Note pIC50 for the molecule shown: COCC(C#N)Cc1ccc2c(-c3ccccc3C)cc(=O)oc2c1 (centres unmarked) [Example 201]
Result: 5.70

Ask: Note pIC50 for the molecule shown: CNC(=O)[C@@H]1C[C@@H]1c1ccc2c(-c3ccccc3C)cc(=O)oc2c1 (relative stereo) [Example 231]
Result: 6.40

Ask: Note pIC50 for the molecule shown: Cc1ccccc1-c1cc(=O)oc2cc([C@@H]3C[C@H]3C(=O)N(C)C)ccc12 (relative stereo) [Example 241]
Result: 5.30

* * *

Measured pIC50 (POLRMT (Homo sapiens (Human)))
// scale note: pIC50 = -log10(conc_M); give the bare number

// below: answered compounds
{"Compound": "COCC(C(N)=O)N(C)c1ccc2c(-c3ccccc3C)cc(=O)oc2c1 (centres unmarked) [Example 202]", "Experimental system": "POLRMT (Homo sapiens (Human))", "Test value": 5.70}
{"Compound": "Cc1ccccc1-c1cc(=O)oc2cc(N[C@H](C)C(=O)N3CCC[C@H](C(=O)O)C3)ccc12 [Example 80]", "Experimental system": "POLRMT (Homo sapiens (Human))", "Test value": 7.00}
{"Compound": "Cc1ccccc1-c1cc(=O)oc2cc(N(C)CC(=O)OC(C)(C)C)ccc12 [Example 70]", "Experimental system": "POLRMT (Homo sapiens (Human))", "Test value": 7.40}
{"Compound": "Cc1ccccc1-c1cc(=O)oc2cc(C(=O)Nc3ccccc3)ccc12 [Example 35]", "Experimental system": "POLRMT (Homo sapiens (Human))", "Test value": 5.70}
{"Compound": "Cc1ccccc1-c1cc(=O)oc2cc(N[C@@H](C)CC(=O)O)ccc12 [Example 149]", "Experimental system": "POLRMT (Homo sapiens (Human))", "Test value": 6.00}

Ask: Note pIC50 for the compound shown: CC(=O)NC1CCN(C(=O)c2ccc3c(-c4ccccc4C)cc(=O)oc3c2)CC1 [Example 109]
Result: 5.30

Ask: Note pIC50 for the compound shown: Cc1ccccc1-c1cc(=O)oc2cc(C(=O)N(C)Cc3nccn3C)ccc12 [Example 114]
Result: 4.44

Ask: Note pIC50 for the compound shown: Cc1ccccc1-c1cc(=O)oc2cc(N(C)CC(N)=O)ccc12 [Example 106]
Result: 6.70

Ask: Note pIC50 for the compound shown: Cc1ccccc1-c1cc(=O)oc2cc(N(C)CC(C)(C)C(=O)O)ccc12 [Example 128]
Result: 7.52

Ask: Note pIC50 for the compound shown: CN(CCC(=O)O)c1ccc2c(-c3ccc(F)cc3Cl)cc(=O)oc2c1 [Example 130]
Result: 6.40

Ask: Note pIC50 for the compound shown: COCC(Cc1ccc2c(-c3ccccc3C)cc(=O)oc2c1)C(N)=O (single isomer, unassigned) [Example 208]
Result: 5.52

Ask: Note pIC50 for the compound shown: COC[C@H]1CCN(C(=O)c2ccc3c(-c4ccccc4C)cc(=O)oc3c2)C1 [Example 123]
Result: 4.80

Ask: Note pIC50 for the compound shown: Cc1ccccc1-c1cc(=O)oc2cc(CC(C)C(=O)N3CCC[C@H](C#N)C3)ccc12 (single isomer, unassigned) [Example 84]
Result: 4.49

Ask: Note pIC50 for the compound shown: Cc1ccccc1-c1cc(=O)oc2cc([C@H]3C[C@H]3C(=O)N(C)C)ccc12 (relative stereo) [Example 234]
Result: 5.52

Ask: Note pIC50 for the compound shown: COCCNC(=O)CN(C)c1ccc2c(-c3ccccc3C)cc(=O)oc2c1 [Example 218]
Result: 6.70
